Target: Angiotensin-I converting enzyme (ACE) (from rabbit lungs) (Oryctolagus cuniculus)
Construct: Angiotensin-I converting enzyme (ACE) (from rabbit lungs); purchased Sigma-Aldrich Co. (St. Louis, MO, United States); host or cells: rabbit lung tissue
Sequence (P12822 34-1310): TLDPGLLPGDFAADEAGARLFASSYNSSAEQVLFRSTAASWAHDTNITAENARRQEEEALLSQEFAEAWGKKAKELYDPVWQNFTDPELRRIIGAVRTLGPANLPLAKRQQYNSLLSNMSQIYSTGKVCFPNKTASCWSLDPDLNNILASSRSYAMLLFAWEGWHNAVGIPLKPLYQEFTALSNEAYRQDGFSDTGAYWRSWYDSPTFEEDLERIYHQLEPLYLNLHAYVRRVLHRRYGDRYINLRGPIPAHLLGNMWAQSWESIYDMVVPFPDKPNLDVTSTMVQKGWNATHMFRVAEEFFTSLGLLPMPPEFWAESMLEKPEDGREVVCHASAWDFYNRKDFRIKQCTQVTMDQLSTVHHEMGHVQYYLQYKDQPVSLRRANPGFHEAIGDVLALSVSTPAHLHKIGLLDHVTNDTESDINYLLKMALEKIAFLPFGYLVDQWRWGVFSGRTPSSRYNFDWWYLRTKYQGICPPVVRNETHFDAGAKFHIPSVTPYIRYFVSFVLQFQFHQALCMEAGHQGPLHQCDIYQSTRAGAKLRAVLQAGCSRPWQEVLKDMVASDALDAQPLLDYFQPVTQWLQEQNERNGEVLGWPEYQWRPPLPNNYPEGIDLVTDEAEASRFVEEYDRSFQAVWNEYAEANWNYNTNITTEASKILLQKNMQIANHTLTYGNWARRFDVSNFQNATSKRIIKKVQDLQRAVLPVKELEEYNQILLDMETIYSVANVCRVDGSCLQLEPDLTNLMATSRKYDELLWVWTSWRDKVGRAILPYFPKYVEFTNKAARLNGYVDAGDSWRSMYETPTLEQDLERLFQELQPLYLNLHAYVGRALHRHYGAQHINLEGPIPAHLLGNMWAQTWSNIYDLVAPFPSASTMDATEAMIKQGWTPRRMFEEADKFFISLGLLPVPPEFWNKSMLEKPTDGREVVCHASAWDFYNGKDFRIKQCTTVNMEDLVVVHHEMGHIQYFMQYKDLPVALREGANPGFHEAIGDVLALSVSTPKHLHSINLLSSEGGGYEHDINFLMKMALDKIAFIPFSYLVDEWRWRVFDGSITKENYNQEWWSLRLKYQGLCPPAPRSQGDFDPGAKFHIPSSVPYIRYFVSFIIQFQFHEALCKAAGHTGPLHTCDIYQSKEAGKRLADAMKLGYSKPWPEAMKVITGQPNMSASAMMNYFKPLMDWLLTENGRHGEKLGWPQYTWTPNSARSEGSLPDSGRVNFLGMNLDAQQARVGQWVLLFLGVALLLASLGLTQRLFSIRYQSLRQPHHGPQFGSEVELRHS
Assay: ACE-inhibitory activity assay (HHL substrate, HPLC of hippuric acid)
Format: biochemical
Conditions: peptide 2 mg/mL, HHL 5 mM, ACE 0.1 U/mL, 37°C, 5 min pre-incubation, 60 min, triplicate
measured-metric: ACE inhibition rate (%) Concentration (2 mg/mL)
// return numeric value only (unit: %, not printed)

Some substances with known ACE inhibition rate (%) Concentration (2 mg/mL) results, for comparison:
substance=VILGDADLP readout_unit=% measurement=4.7219
substance=LDVSWASD readout_unit=% measurement=13.9971

Query: Using known records, supply ACE inhibition rate (%) Concentration (2 mg/mL) for TNEVEGPS
Reply: 7.9218
